IC50 listing for selected molecules.
test system: SUDHL5; test: Induction of cytotoxicity, SUDHL5 (Assay 6); conditions: Homo sapiens, SU-DHL-5, 5 h, read-out: IC50 Cytotox SUDHL5 [M] (median), SUDHL5 cells, 5 h, CellTiter-Glo
Answer with a number only, understood to be in M.

In [3]: df
Out[3]:
                                   molecule  measurement
0  CCc1c2c(nn1C)CN(C)CCCCn1c(C(=O)O)c(CCCOc3cccc4cc(F)ccc34)c3ccc(F)c-2c31 (racemic) [Example 53]      3.3e-07
1  Cc1c2c(nn1C)COCCCCn1c(C(=O)O)c(CCCOc3cccc4ccccc34)c3ccc(F)c-2c31 (racemic) [Example 2]        1e-06
2  CCc1c2c(nn1C)COCCCCn1c(C(=O)O)c(CCCOc3cccc4c3CCCC4)c3ccc(F)c-2c31 (racemic) [Example 29]      1.2e-06
3  Cc1cc(OCCCc2c(C(=O)O)n3c4c(c(F)ccc24)-c2c(nn(C)c2C)COCCCC3)cc(C)c1Cl (racemic) [Example 20]      1.8e-06
4  CCc1c2c(nn1C)COCCCCn1c(C(=O)O)c(CCCOc3cccc4ccccc34)c3ccc(F)c-2c31 (racemic) [Example 6]      6.4e-07

QUERY: Give IC50 for the following molecule: CCc1c2c(nn1C)CN(C)CCCCn1c(C(=O)O)c(CCCOc3cccc4ccccc34)c3ccc(F)c-2c31 (racemic) [Example 54]
RESULT: 4.5e-07

QUERY: Give IC50 for the following molecule: Cc1cc(OCCCc2c(C(=O)O)n3c4c(c(F)ccc24)-c2c(C)nn(C)c2COCCCC3)cc(C)c1Cl (racemic) [Example 36]
RESULT: 4.3e-06

QUERY: Give IC50 for the following molecule: CCc1nn(C)c2c1-c1c(F)ccc3c(CCCOc4ccc(F)c5ccccc45)c(C(=O)O)n(c13)CCCCOC2 (racemic) [Example 41]
RESULT: 3e-06

QUERY: Give IC50 for the following molecule: CCc1nn(C)c2c1-c1c(F)ccc3c(CCCOc4cccc5ccccc45)c(C(=O)O)n(c13)C/C=C\COC2 (racemic) [Example 11]
RESULT: 2.3e-06

QUERY: Give IC50 for the following molecule: CCc1c2c(nn1C)COCCCCn1c(C(=O)O)c(CCCOc3ccc(F)c4ccccc34)c3ccc(F)c-2c31 (racemic) [Example 26]
RESULT: 1.8e-06

QUERY: Give IC50 for the following molecule: CCc1c2c(nn1C)CN(C)CCCCn1c(C(=O)O)c(CCCOc3cccc4c3CCCC4)c3ccc(F)c-2c31 (racemic) [Example 52]
RESULT: 4.3e-07

QUERY: Give IC50 for the following molecule: Cc1c2c(nn1C)COCCCCn1c(C(=O)O)c(CCCOc3cccc4c3CCC4)c3ccc(F)c-2c31 (racemic) [Example 19]
RESULT: 1.4e-06

QUERY: Give IC50 for the following molecule: Cc1nn(C)c2c1-c1c(F)ccc3c(CCCOc4cccc5c4CCCC5)c(C(=O)O)n(c13)CCCCOC2 (racemic) [Example 34]
RESULT: 2.6e-06

====

IC50 listing for selected compounds.
test system: SUDHL5; test: Induction of cytotoxicity, SUDHL5 (Assay 6); conditions: read-out: IC50 Cytotox SUDHL5 [M] (median), SUDHL5 cells, 5 h, CellTiter-Glo

Compound	IC50
CCc1nn(C)c2c1-c1c(F)ccc3c(CCCOc4cccc5cc(F)ccc45)c(C(=O)O)n(c13)CCCCOC2 (single isomer, unassigned; enantiomer 2) [Example 40]	2.3e-05 M
Cc1c2c(nn1C)COCCCCn1c(C(=O)O)c(CCCOc3cccc4ccccc34)c3ccc(F)c-2c31 (single isomer, unassigned; enantiomer 2) [Example 4]	> 3.3e-05 M

Now look at this one.
QUERY: Give IC50 for the following compound: Cc1c2c(nn1C)COCCCCn1c(C(=O)O)c(CCCOc3ccc(F)c4ccccc34)c3ccc(F)c-2c31 (single isomer, unassigned; enantiomer 2) [Example 17]
RESULT: > 3.3e-05 M
